System: metabolism of retinoic acid in human breast cancer cells
Assay: Inhibition of retinoic acid (RA) metabolism (Example C.1)
Type: cell-based
Details: MCF-7 human breast cancer cells, 3H-RA as substrate; concentration needed to reduce the amount of metabolites to 50% of the control
pIC50: −log10 of the molar value.
pIC50 values, listed per item
measured-quantity: pIC50

>  <compound>
CC(C)C(=CC(=O)Nc1ccc(C(c2ccc(Cl)cc2)n2ccnc2)cc1)c1ccccc1 (mixture of isomers)

>  <result>
< 6.00

$$$$
>  <compound>
O=C(Cc1ccc(Cl)cc1)Nc1ccc(C(c2ccccc2)n2ccnc2)cc1 (stereo not shown)

>  <result>
< 7.00

$$$$
>  <compound>
C/C(=C\c1ccccc1)C(=O)Nc1ccc(C(C)n2ccnc2)cc1 (racemic)

>  <result>
< 6.00

$$$$
>  <compound>
CC(C)C(c1ccc(NC(=O)C(C)(c2ccccc2)c2ccccc2)cc1)n1ccnc1 (racemic)

>  <result>
< 7.00

$$$$

* * *

Test system: Ovariectomized rats
Assay: Vaginal keratinization test on ovariectomized rats (Example C.2)
Assay type: in vivo
Conditions: Rattus norvegicus, po, estradiol undecylate induced keratinization, per os once daily on days 1-3, active dose = 50% of rats show complete suppression, read-out: LAD (lowest active dose)
From the text: The property to delay the metabolism of retinoic acid can be evidenced in various in vitro and in vivo experiments. A particular in vitro procedure is described in example C.1 and tests the inhibitory activity of the compounds of formula (I) on the metabolism of retinoic acid in human breast cancer cells. The compounds of the present invention were also effective in suppressing induced vaginal keratinization effects in ovariectomized rats as is described in example C.2. […]
measured-quantity: minimal effective dose

>  <compound>
CCC(CC)C(c1ccc(NC(=S)Nc2nc3ccccc3s2)cc1)n1ccnc1 (racemic) [Compound 705]

>  <assayed-target>
Ovariectomized rats

>  <result>
> 5 mg/kg

$$$$
>  <compound>
CC(C)C(c1ccc(NC(=O)Nc2ccccn2)cc1)n1ccnc1 (racemic) [Compound 274]

>  <assayed-target>
Ovariectomized rats

>  <result>
> 10 mg/kg

$$$$
>  <compound>
CC(C)C(c1ccc(NC(N)=O)cc1)n1ccnc1 (racemic) [Compound 266]

>  <assayed-target>
Ovariectomized rats

>  <result>
> 10 mg/kg

$$$$
>  <compound>
CCC(CC)C(c1ccc(NC(=O)CN2CCN(C)CC2)cc1)n1cncn1 (racemic) [Compound 15]

>  <assayed-target>
Ovariectomized rats

>  <result>
> 2.5 mg/kg

$$$$
>  <compound>
CC(C)C(c1ccc(NC(=S)Cc2ccc(Cl)cc2)cc1)n1ccnc1 (stereo not drawn) [Compound 764]

>  <assayed-target>
Ovariectomized rats

>  <result>
> 5 mg/kg

$$$$
>  <compound>
CCC(CC)C(c1ccc(NC(=O)C2CCNCC2)cc1)n1ccnc1.Cl (racemic) [Compound 57]

>  <assayed-target>
Ovariectomized rats

>  <result>
> 5 mg/kg

$$$$

* * *

System: metabolism of retinoic acid in human breast cancer cells
Assay: Inhibition of retinoic acid (RA) metabolism (Example C.1)
Format: cell-based
Conditions: MCF-7 human breast cancer cells, 3H-RA as substrate; concentration needed to reduce the amount of metabolites to 50% of the control
pIC50: −log10 of the molar value.
Listing of recorded pIC50 by entry.

>  <compound>
C/C(=C\c1ccccc1)C(=O)Nc1ccc(C(C2COCOC2)n2ccnc2)cc1 (racemic)

>  <bound-sign>
<

>  <pIC50>
6.00

$$$$
>  <compound>
CC(C)C(c1ccc(NC(=O)Nc2cccc(F)c2)cc1)c1ccccn1 (stereo not shown)

>  <bound-sign>
<

>  <pIC50>
7.00

$$$$
>  <compound>
CC(C)C(c1ccc(NC(=O)Cc2ccco2)cc1)n1ccnc1 (racemic)

>  <bound-sign>
=

>  <pIC50>
8.16

$$$$
>  <compound>
CCC(CC)C(c1ccc(NC(=O)C(O)c2ccc(Cl)cc2)cc1)n1cncn1 (single isomer, unassigned) [Compound 21]

>  <bound-sign>
=

>  <pIC50>
8.54

$$$$

* * *

Test system: metabolism of retinoic acid in human breast cancer cells
Assay: Inhibition of retinoic acid (RA) metabolism (Example C.1)
Format: cell-based
Conditions: MCF-7 human breast cancer cells, 3H-RA as substrate; concentration needed to reduce the amount of metabolites to 50% of the control
Under this convention, 1 denotes IC50 strictly below 1 nM and 0 denotes IC50 at or above 1 nM.

>  <molecule>
CCC(CC)C(c1ccc(NC(=O)Cc2ccc(OCc3ccccn3)cc2)cc1)n1ccnc1 (racemic)

>  <class-name>
1

$$$$
>  <molecule>
CCC(CC)C(c1ccc(NC(=O)c2ccc(OC)c(OC)c2)cc1)n1cncn1 (racemic)

>  <class-name>
0

$$$$
>  <molecule>
COc1ccc(C(=O)Nc2ccc(C(C(C)C)n3ccnc3)cc2)cc1OC (racemic)

>  <class-name>
0

$$$$
>  <molecule>
COc1cc(CC(=O)Nc2ccc(C(C(C)C)n3ccnc3)cc2)cc(OC)c1OC (stereo not shown)

>  <class-name>
0

$$$$
>  <molecule>
COc1cc(CC(=O)Nc2ccc(C(C(C)N(C)C)n3ccnc3)cc2)ccc1Cl (single isomer, unassigned)

>  <class-name>
1

$$$$
>  <molecule>
CC(C)C(c1ccc(NC(=O)Cc2cccc(F)c2)cc1)n1ccnc1 (stereo not shown)

>  <class-name>
0

$$$$
>  <molecule>
CCC(CC)C(c1ccc(NC(=O)Cc2ccc(C)c(OC)c2)cc1)n1cncn1 (single isomer, unassigned) [Compound 782]

>  <class-name>
0

$$$$

* * *

Tested on: metabolism of retinoic acid in human breast cancer cells
Assay: Inhibition of retinoic acid (RA) metabolism (Example C.1)
Type: cell-based
Details: MCF-7 human breast cancer cells, 3H-RA as substrate; concentration needed to reduce the amount of metabolites to 50% of the control
pIC50: −log10 of the molar value.
# binarize pIC50: threshold 9 inclusive, high side Condition met, low side Condition not met

>  <compound>
CC(C)C(c1ccc(NC(=O)c2cccc3nccnc23)cc1)n1ccnc1 (racemic)

>  <class-name>
Condition not met

$$$$
>  <compound>
CC(C)C(c1ccc(NC(=O)CNC(=O)c2ccccc2)cc1)n1ccnc1 (racemic)

>  <class-name>
Condition not met

$$$$
>  <compound>
COc1ccc(CC(=O)Nc2ccc(C(C(C)C)n3ccnc3)cc2)cc1OC (stereo not drawn)

>  <class-name>
Condition not met

$$$$
>  <compound>
CC(C)C(c1ccc(NC(=O)CC2COc3ccccc3O2)cc1)n1cncn1 (stereo not drawn)

>  <class-name>
Condition not met

$$$$
>  <compound>
CCC(CC)C(c1ccc(NC(=O)Cc2cc(C)c(C)c(C)c2)cc1)n1cncn1 (racemic)

>  <class-name>
Condition met

$$$$

* * *

Tested on: metabolism of retinoic acid in human breast cancer cells
Test: Inhibition of retinoic acid (RA) metabolism (Example C.1)
Type: cell-based
Details: MCF-7 human breast cancer cells, 3H-RA as substrate; concentration needed to reduce the amount of metabolites to 50% of the control
IC50 vs 2 nM: less than gives Met; not less than gives Not met.

>  <compound>
CC(c1ccc(NC(=O)Cc2ccc(Cl)cc2)cc1)n1ccnc1 (racemic)

>  <class-name>
Not met

$$$$
>  <compound>
O=C(C=C(c1ccccc1)C1CCCCC1)Nc1ccc(C(c2ccc(Cl)cc2)n2ccnc2)cc1 (mixture of isomers)

>  <class-name>
Not met

$$$$
>  <compound>
CCC(CC)C(c1ccc(NC(=O)Cc2ccc(F)cc2)cc1)n1ccnc1 (racemic)

>  <class-name>
Met

$$$$
>  <compound>
CCC(CC)C(c1ccc(NC(=O)Nc2cc(F)ccc2F)cc1)n1cncn1 (racemic)

>  <class-name>
Met

$$$$
>  <compound>
Cc1cc(CC(=O)Nc2ccc(C(C(C)N(C)C)n3cncn3)cc2)cc(C)c1C (single isomer, unassigned) [Compound 290]

>  <class-name>
Met

$$$$
>  <compound>
C/C(=C\c1ccc(C(F)(F)F)cc1F)C(=O)Nc1ccc(C(C(C)C)n2ccnc2)cc1 (racemic)

>  <class-name>
Not met

$$$$
>  <compound>
CCC(CC)C(c1ccc(NC(=O)Cc2ccc(F)cc2)cc1)n1cncn1 (racemic)

>  <class-name>
Met

$$$$
>  <compound>
CCC(CC)C(c1ccc(NC(=O)Cc2cc(C)ccc2O)cc1)n1ccnc1 (racemic)

>  <class-name>
Met

$$$$
>  <compound>
Cc1nccn1C(c1ccc(NC(=O)Cc2ccc(Cl)cc2)cc1)C(C)C (stereo not shown)

>  <class-name>
Not met

$$$$
>  <compound>
CCC(CC)C(c1ccc(NC(=O)c2ccc3c(c2)C(C)(C)CCC3(C)C)cc1)n1ccnc1 (racemic)

>  <class-name>
Not met

$$$$
>  <compound>
CC(C)C(c1ccc(NC(=O)C2CCCCC2)cc1)n1ccnc1 (racemic) [Compound 174]

>  <class-name>
Met

$$$$
>  <compound>
C/C(=C\c1ccccc1)C(=O)Nc1ccc(C(CC(C)C)n2ccnc2)cc1 (racemic)

>  <class-name>
Not met

$$$$
>  <compound>
CC(C)C(c1ccc(NC(=O)/C(=C/c2ccccc2)C2CCCCC2)cc1)n1ccnc1 (racemic)

>  <class-name>
Not met

$$$$
>  <compound>
CCC(CC)C(c1ccc(NC(=O)C(O)c2ccc(Cl)cc2)cc1)n1ccnc1 (stereo not shown)

>  <class-name>
Not met

$$$$
>  <compound>
C/C(=C\c1ccccc1)C(=O)Nc1ccc(C(C(C)c2ccccc2)n2ccnc2)cc1 (single isomer, unassigned)

>  <class-name>
Not met

$$$$
>  <compound>
CCC(CC)C(c1ccc(NC(=O)Cc2ccc(OC)c(C)c2)cc1)n1ccnc1 (racemic)

>  <class-name>
Met

$$$$
>  <compound>
CC(C(=O)Nc1ccc(C(C(C)C)n2ccnc2)cc1)=C(c1ccccc1)c1ccsc1 (mixture of isomers)

>  <class-name>
Not met

$$$$
>  <compound>
Cc1cc(CC(=O)Nc2ccc(C(C(C)N(C)C)n3cncn3)cc2)cc(C)c1C (single isomer, unassigned) [Compound 291]

>  <class-name>
Not met

$$$$
>  <compound>
CC(=O)Nc1ccc(C(c2cccc(F)c2)n2cncn2)cc1 (stereo not shown) [Compound 615]

>  <class-name>
Not met

$$$$
>  <compound>
CC(C(c1ccc(NC(=O)Cc2ccc(O)c(Cl)c2)cc1)n1cncn1)N(C)C (single isomer, unassigned) [Compound 289]

>  <class-name>
Met

$$$$
>  <compound>
CCC(CC)C(c1ccc(NC(=O)c2cnccn2)cc1)n1ccnc1 (racemic)

>  <class-name>
Met

$$$$
>  <compound>
CCN(C(=O)/C(C)=C/c1ccccc1)c1ccc(C(C(C)C)n2ccnc2)cc1 (racemic)

>  <class-name>
Not met

$$$$
